- assayed_target: BRD4(BD1) (Homo sapiens (Human))
- assay_overview: In vitro enzyme inhibition assay (BRD4 AlphaScreen, H4-tetraacetyl peptide)
- Format: binding
- particulars: in vitro enzyme inhibition assay; read-out: BRD4 IC50
observed_property: IC50

Query :: Request body: readout IC50, system BRD4(BD1) (Homo sapiens (Human)), query Cn1cc(-c2cccc(S(N)(=O)=O)c2)c2ccc(F)cc2c1=O [Example 61] . Return the value.
Result :: < 0.5 µM

----------
- System: HL-60, human proleukemia cells
- assay_overview: Cell-MTS cellular proliferation assay, HL-60
- Format: cell-based
- particulars: Homo sapiens, HL-60; Cell-MTS proliferation, 168 hr; class symbols; read-out: HL-60 IC50
observed_property: IC50

Query :: # query: IC50 of entry Cn1cc(-c2cc(S(C)(=O)=O)ncc2OCC2CC2)c2ccc(F)cc2c1=O
Result :: < 500 nM

# credit: patent US10941160B2
